system: Acinetobacter baumannii ATCC 17978
outcome measure: MIC

Ask: GET /values?readout=MIC&item= CNCc1ccc(-c2ccc(C3(O)C4CN(C)CC3CN(C(=O)Nc3cc(F)cc(F)c3)C4)nc2)c(C#N)c1 (stereo not shown)
Result: 28.5 µg/mL

Ask: GET /values?readout=MIC&item= CN1CC2CN(C(=O)Nc3cc(F)cc(F)c3)CC(C1)C2(O)c1ccc(-c2ccc(CN)cc2C#N)cc1 (stereo not shown)
Result: 64 µg/mL

Ask: GET /values?readout=MIC&item= CN1CC2CN(C(=O)Nc3cc(F)cc(F)c3)CC(C1)C2(O)c1ccc(-c2ccc(CN)cc2C#N)cn1 (stereo not shown)
Result: 64 µg/mL

Ask: GET /values?readout=MIC&item= C[C@H]1COc2c(N3CCN(C)CC3)c(F)cc3c(=O)c(C(=O)O)cn1c23 [Levofloxin, reference compound]
Result: 1 µg/mL
